experiment: soluble on expression in E. coli; label from the status in PepcDB or PDB records

{"sequenceString": "MGSDKIHHHHHHSCTSQKKKLAKMHTEDTIVKAQLIQHTKESLLSPYQHVNFQLDLTKNKTAFYGYNTGSKWELWVKTDSTITFKYDGEEMVFSSAKTTEAQDNPVVKYHSKTIVSNPSQPGLKKSITVMIRDEKYLDEIQGTYVPLSVRIEVEDHTNKTTVIYAGGGFYVVNPIIHDIWVLDSMSNVKVSAENFPLGAPRLEFHLDGGKIYGFSGCNEITATFYTIQNQIQLNSEISTLKSCVHVPLEPLFMGALANKRYYYSFEERRLKLKHRDGSILSFKKVD", "soluble on expression in E. coli": "not soluble"}
{"sequenceString": "MGSDKIHHHHHHMVVSIGVFDGVHIGHQKVLRTMKEIAFFRKDDSLIYTISYPPEYFLPDFPGLLMTVESRVEMLSRYARTVVLDFFRIKDLTPEGFVERYLSGVSAVVVGRDFRFGKNASGNASFLRKKGVEVYEIEDVVVQGKRVSSSLIRNLVQEGRVEEIPAYLGRYFEIEGIVHKDREFGRKLGFPTANIDRGNEKLVDLKRGVYLVRVHLPDGKKKFGVMNVGFRPTVGDARNVKYEVYILDFEGDLYGQRLKLEVLKFMRDEKKFDSIEELKAAIDQDVKSARNMIDDIINSKFEKEG", "soluble on expression in E. coli": "not soluble"}
{"sequenceString": "MNGEVMDELIQKLERVSQTSFIGSGKLMELSELVEMHEADVVIFNSELSATQVRNISKIVDARIIDLEHHHHHH", "soluble on expression in E. coli": "not soluble"}
{"sequenceString": "MGSDKIHHHHHHMPYFERDGYYIDRCPECRFVYVRNVPSDGTLAAFYSGYYGDVNEFVPVSRKRLSKRFSKSVENWWHARNLVRCAAGRRKLLEIGYGEGHLLMALKQTRRFELRGIDYATGPMAYMSANGIDVAQGSLFDQHYPDNRFEFIVGFHVLEHVQHLGEFMSEVRRVLAPAGRVYFVVPCVTHFSAVRRRQNWKHFGPPGHLWYFSVTAMRRFMTDQDFKVVSAHCISNRTHLTVLAEKTS", "soluble on expression in E. coli": "not soluble"}
